- target.or.test.system: Orai1/STIM1 (Homo sapiens, UniProt Q96D31)
- Sequence (Q96D31 whole entry): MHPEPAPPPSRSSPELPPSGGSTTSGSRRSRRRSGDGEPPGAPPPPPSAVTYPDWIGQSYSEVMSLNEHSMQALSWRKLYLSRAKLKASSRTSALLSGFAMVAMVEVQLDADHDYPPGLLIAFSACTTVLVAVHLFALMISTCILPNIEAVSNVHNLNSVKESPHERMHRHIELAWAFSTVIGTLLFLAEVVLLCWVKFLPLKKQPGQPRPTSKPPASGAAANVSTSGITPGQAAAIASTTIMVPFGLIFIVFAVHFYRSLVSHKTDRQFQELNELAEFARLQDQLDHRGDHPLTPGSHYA
- assay.summary: Fluorescence-based assay of store-operated calcium entry in Orai1/STIM1 stable cells
- run.parameters: HEK-293 cells stably expressing human STIM1 and Orai1; 50% inhibition of Peak-Basal fluorescence signal; read-out: Orai1/STIM1 (IC50, μmol)
pIC50: −log10 of the molar value.
measured.quantity: pIC50

INSERT INTO assay_data (molecule, measured_quantity, reading) VALUES
  ('O=C(Nc1cnc(-c2cn(-c3nccs3)nc2C2CC2)cn1)c1c(F)ccc(F)c1F', 'pIC50', '< 5.92'),
  ('Cc1cccc(F)c1C(=O)Nc1ccc(-c2cn(-c3nccs3)nc2C)cn1', 'pIC50', '> 6.22'),
  ('O=C(Nc1ccc(-c2cn(-c3nccs3)nc2C2CC2)c(F)c1)c1c(F)ccc(F)c1F', 'pIC50', '5.92 to 6.22'),
  ('O=C(Nc1ccc(-c2cn(-c3nccs3)nc2C2CC2)cn1)c1c(F)cccc1F', 'pIC50', '> 6.22'),
  ('Cc1nn(-c2nccs2)cc1-c1cnc(NC(=O)c2ccccc2F)cn1', 'pIC50', '> 6.22');

In: Please report pIC50 for the following compound: CCc1nn(-c2nccs2)cc1-c1ccc(NC(=O)c2cc(F)nc(F)c2)cc1F
Out: < 5.92

In: Please report pIC50 for the following compound: Cc1cccc(F)c1C(=O)Nc1ccc(-c2cn(-c3ccccc3F)nc2C)cn1
Out: > 6.22

In: Please report pIC50 for the following compound: Cc1nn(-c2nccs2)cc1-c1ccc(NC(=O)c2ccccc2F)s1
Out: > 6.22
